B1: TPR t1 (parent)
chain: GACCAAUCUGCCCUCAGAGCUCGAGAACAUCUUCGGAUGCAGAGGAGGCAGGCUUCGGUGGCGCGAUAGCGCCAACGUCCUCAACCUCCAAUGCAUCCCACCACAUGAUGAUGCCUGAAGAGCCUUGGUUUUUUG

Variants of: B1
Assay: polymerase ribozyme fitness, log enrichment relative to wild type (log ratio); higher = more active; in vitro selection for triplet polymerase activity
Assignment: determine reported polymerase ribozyme fitness (log ratio) for the given variants.

// below: answered variants
>>> reading("A43C G48C G71A")
-4.5
>>> reading("A27G U55A")
-2.6
>>> reading("C13U G35A G45A U87G")
-4.53
>>> reading("G51C C53U C56U C89G U112G")
-5.96
>>> reading("A46G A108G G117A")
-4.03

// each listed variant needs a value for polymerase ribozyme fitness (log ratio)
1. U109A U130A
2. C11A U78C

Response:
[-5.09, -0.895]
